target: human P2X7 receptor (Homo sapiens, UniProt Q99572, R270H/Y155H); assay: Evaluation of a human P2X7 receptor inhibitory activity (Yo-Pro uptake, BzATP stimulation, FLIPR TETRA); assay type: cell-based; details: 1321N1 cells expressing human P2X7 receptor; BzATP stimulation, Yo-Pro uptake; read-out: IC50 (antagonistic activity for the human P2X7 receptor), class
pIC50: −log10 of the molar value.
parameter.measured: pIC50

Can you look up pIC50 on human P2X7 receptor (Homo sapiens, UniProt Q99572, R270H/Y155H) for COc1cccc(Nc2nc(=O)c(OC)cn2Cc2ccc(F)c(Cl)c2)c1C ?
> 8.00

Query the reported pIC50 for human P2X7 receptor (Homo sapiens, UniProt Q99572, R270H/Y155H); item: COc1cc(C)c(Nc2nc(=O)c(OC)cn2Cc2cccc(F)c2)cc1C
> 8.00

API: value(readout=pIC50, system=human P2X7 receptor (Homo sapiens, UniProt Q99572, R270H/Y155H)) for record COc1cn(Cc2cc(F)cc(Cl)c2)c(Nc2cc(OCC(F)(F)F)ccc2C)nc1=O
6.30 to 7.00

Item: CCOc1ccc(C)c(Nc2nc(=O)c(OC)cn2Cc2cc(F)cc(Cl)c2)c1 Test system: human P2X7 receptor (Homo sapiens, UniProt Q99572, R270H/Y155H) Read-out: pIC50 Value: ?
7.00 to 8.00

Hi! What's the reported pIC50 for CCc1ccc(F)cc1Nc1nc(=O)c(OC)cn1Cc1ccccc1 on human P2X7 receptor (Homo sapiens, UniProt Q99572, R270H/Y155H)?
7.00 to 8.00

State its pIC50 on human P2X7 receptor (Homo sapiens, UniProt Q99572, R270H/Y155H): CCOc1ccc(C)c(Nc2nc(=O)c(OC)cn2Cc2cc(F)cc(F)c2)c1
7.00 to 8.00

Missing value: pIC50, human P2X7 receptor (Homo sapiens, UniProt Q99572, R270H/Y155H), entry COc1cc(Nc2nc(=O)c(OC)cn2Cc2ccc(F)cc2)c(C)cc1Cl . Fill in?
> 8.00

Can you look up pIC50 on human P2X7 receptor (Homo sapiens, UniProt Q99572, R270H/Y155H) for COc1cn(Cc2ccccc2)c(Nc2cccc(C)c2Cl)nc1=O ?
7.00 to 8.00

Recall the recorded pIC50 for COc1cn(Cc2cccc(Cl)c2)c(Nc2cccc(C(F)(F)F)c2C)nc1=O with human P2X7 receptor (Homo sapiens, UniProt Q99572, R270H/Y155H) and state it.
7.00 to 8.00

Identify the measured pIC50 of Cc1c(Cl)cccc1Nc1nc(=O)c(OOC(C)(C)C)cn1Cc1ccccc1 for human P2X7 receptor (Homo sapiens, UniProt Q99572, R270H/Y155H).
6.30 to 7.00

Which pIC50 is reported with human P2X7 receptor (Homo sapiens, UniProt Q99572, R270H/Y155H) for this entry: COc1cc(C)c(Nc2nc(=O)c(OC)cn2Cc2ccc(F)c(Cl)c2)cc1Cl ?
> 8.00

// lookup pIC50 | system=human P2X7 receptor (Homo sapiens, UniProt Q99572, R270H/Y155H) | key= CCOc1ccc(C)c(Nc2nc(=O)c(OC)cn2Cc2ccc(F)c(Cl)c2)c1
> 8.00

Identify the measured pIC50 of COc1cc(C)c(Nc2nc(=O)c(OC)cn2Cc2cc(F)cc(Cl)c2)cc1C for human P2X7 receptor (Homo sapiens, UniProt Q99572, R270H/Y155H).
> 8.00

Item COc1cn(Cc2ccc(F)c(Cl)c2)c(Nc2cc(S(C)(=O)=O)c(C)cc2C)nc1=O with human P2X7 receptor (Homo sapiens, UniProt Q99572, R270H/Y155H) - pIC50?
> 8.00

Record CCOc1ccc(C)c(Nc2nc(=O)c(OC)cn2Cc2ccc(F)c(F)c2)c1 : what is its pIC50 with human P2X7 receptor (Homo sapiens, UniProt Q99572, R270H/Y155H)?
> 8.00

// fetch human P2X7 receptor (Homo sapiens, UniProt Q99572, R270H/Y155H) pIC50 for COc1cn(Cc2cccc(OC(F)F)c2)c(Nc2cccc(Cl)c2C)nc1=O
6.00 to 6.30

Notebook entry, human P2X7 receptor (Homo sapiens, UniProt Q99572, R270H/Y155H) assay: pIC50 of COc1cn(Cc2cc(F)cc(Cl)c2)c(Nc2ccc(C)cc2C)nc1=O = ?
7.00 to 8.00

Short answer please: pIC50, human P2X7 receptor (Homo sapiens, UniProt Q99572, R270H/Y155H), entry COc1cc(Nc2nc(=O)c(OC)cn2Cc2cccc(F)c2)c(C)cc1Cl
> 8.00

Reported pIC50 for human P2X7 receptor (Homo sapiens, UniProt Q99572, R270H/Y155H), given COc1cccc(Nc2nc(=O)c(OC)cn2Cc2ccc(F)c(F)c2)c1C ?
> 8.00

Please state recorded pIC50 (tested on human P2X7 receptor (Homo sapiens, UniProt Q99572, R270H/Y155H)) of COc1cn(Cc2ccccc2)c(Oc2cc(C)c(C)cc2C)nc1=O
6.00 to 6.30

Return pIC50 measured with human P2X7 receptor (Homo sapiens, UniProt Q99572, R270H/Y155H) given this molecule: COc1cn(Cc2ccc(F)c(F)c2)c(Nc2ccc(C)cc2C)nc1=O
> 8.00

# query: pIC50 | item COc1cc(C)c(Nc2nc(=O)c(OC)cn2Cc2ccccc2)cc1Cl | system: human P2X7 receptor (Homo sapiens, UniProt Q99572, R270H/Y155H)
> 8.00

Lookup: pIC50 / human P2X7 receptor (Homo sapiens, UniProt Q99572, R270H/Y155H) / COc1cn(Cc2ccccc2)c(Nc2cc(S(C)(=O)=O)c(C)cc2C)nc1=O
7.00 to 8.00

Entry CCc1cc(OC)ccc1Nc1nc(=O)c(OC)cn1Cc1cc(F)cc(Cl)c1 , system human P2X7 receptor (Homo sapiens, UniProt Q99572, R270H/Y155H): what pIC50 was measured?
> 8.00

Please provide the recorded pIC50 for COc1cccc(Nc2nc(=O)c(OC)cn2Cc2cccc(Cl)c2)c1C , tested on human P2X7 receptor (Homo sapiens, UniProt Q99572, R270H/Y155H).
> 8.00

Tell me reported pIC50 for COc1cn(Cc2cc(F)cc(F)c2)c(Nc2ccc(C)cc2C)nc1=O , tested with human P2X7 receptor (Homo sapiens, UniProt Q99572, R270H/Y155H).
> 8.00
